Reference for the values: patent US20250135026A1

- Tested on: A549 (PTK7 low)
- assay_explanation: Cellular killing on PTK7 cell lines (Cell-Titer-Glo, 7 days)
- Type: cell-based
- condition_description: Anti-proliferation
- Protocol: The plates were incubated for 7 days at 37° C., 5% CO2. Next, 50 μL of Cell-Titer-Glo reagent was added to each well. The mixture was mixed on an orbital shaker for 10 mins to allow cell lysis. Then, the luminescent signal was measured using BMG PheraStar with the luminescent protocol. The inhibition of Ovcar3 and A549 cell lines is illustrated in FIG. 22 and FIG. 23, respectively.
measurement_name: Emax (%)
Just the number in %, nothing appended.

| molecule | Emax / % |
| --- | --- |
| ADC1-2: antibody: Cofetuzumab (conjugate, chains of the INN, looked up, drug conjugate, antibody: Cofetuzumab) VH: QVQLVQSGPEVKKPGASVKVSCKASGYTFTDYAVHWVRQAPGKRLEWIGVISTYNDYTYNNQDFKGRVTMTRDTSASTAYMELSRLRSEDTAVYYCARGNSYFYALDYWGQGTSVTVSS VL: EIVLTQSPATLSLSPGERATLSCRASESVDSYGKSFMHWYQQKPGQAPRLLIYRASNLESGIPARFSGSGSGTDFTLTISSLEPEDFAVYYCQQSNEDPWTFGGGTKLEIK | 34.22 |
| ADC1-4: antibody: Cofetuzumab (conjugate, chains of the INN, looked up, drug conjugate, antibody: Cofetuzumab) VH: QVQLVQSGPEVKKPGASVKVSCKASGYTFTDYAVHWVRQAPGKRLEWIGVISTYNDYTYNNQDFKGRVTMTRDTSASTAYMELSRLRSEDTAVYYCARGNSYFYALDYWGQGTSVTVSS VL: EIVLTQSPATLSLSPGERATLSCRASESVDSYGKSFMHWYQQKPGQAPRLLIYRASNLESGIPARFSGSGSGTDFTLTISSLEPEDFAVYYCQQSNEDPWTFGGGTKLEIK | 20.12 |

Query: Could you tell me which Emax is on file for ADC1-11: antibody: Cofetuzumab (conjugate, chains of the INN, looked up, drug conjugate, antibody: Cofetuzumab) VH: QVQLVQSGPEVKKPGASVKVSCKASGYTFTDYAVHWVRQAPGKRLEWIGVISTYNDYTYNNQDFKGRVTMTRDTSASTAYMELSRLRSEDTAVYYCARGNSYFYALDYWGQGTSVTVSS VL: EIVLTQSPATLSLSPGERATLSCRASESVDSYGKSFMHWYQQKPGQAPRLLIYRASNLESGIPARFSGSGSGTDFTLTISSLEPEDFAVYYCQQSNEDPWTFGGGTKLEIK ?
Response: 26.44
